Assay: Linearity after single s.c. dose in rat
Assay type: in vivo
Details: Wistar, rat, plasma, sc; s.c. dosing in rats
property-measured: bioavailability

Query: bioavailability; subject: "O=c1ccc2ccc(O[C@@H]3C[C@H]4CC[C@@H](C3)N4)cc2o1"
~100%

###

Target: CYP 2C19 (Homo sapiens)
Sequence (P33261 whole entry): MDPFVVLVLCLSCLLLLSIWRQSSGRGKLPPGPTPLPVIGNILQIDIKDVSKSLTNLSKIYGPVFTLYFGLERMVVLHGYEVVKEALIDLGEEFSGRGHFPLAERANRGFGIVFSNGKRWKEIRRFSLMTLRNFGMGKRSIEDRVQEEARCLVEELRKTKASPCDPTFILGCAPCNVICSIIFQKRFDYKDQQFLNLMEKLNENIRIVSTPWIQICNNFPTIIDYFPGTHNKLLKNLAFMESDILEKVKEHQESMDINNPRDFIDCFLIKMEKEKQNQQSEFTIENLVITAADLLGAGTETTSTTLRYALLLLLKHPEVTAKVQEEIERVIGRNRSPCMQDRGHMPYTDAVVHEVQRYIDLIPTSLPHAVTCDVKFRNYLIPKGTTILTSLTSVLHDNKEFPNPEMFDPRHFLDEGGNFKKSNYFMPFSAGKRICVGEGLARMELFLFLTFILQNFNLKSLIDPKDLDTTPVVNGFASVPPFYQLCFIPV
Experiment: CYP450 inhibition, cocktail of selective substrates, 2C19
Format: in vitro ADME
Details: CYP 2C19, Omeprazole to 5-hydroxyomeprazole; read-out: IC50 of compound (I)
property-measured: IC50

Query: IC50; subject: "O=c1ccc2ccc(O[C@@H]3C[C@H]4CC[C@@H](C3)N4)cc2o1"
> 100 µM

###

Assay: Exposure and tissue distribution after 14 days repeat dosing, mouse
Assay type: in vivo
Conditions: NMRI, mouse, in vivo, po; Male mice, 60 mg/kg p.o. 14 days, 2 h post last dose; read-out: Liver/plasma ratio
property-measured: Kp at 2 h
Give the figure only, with no unit attached.

Query: Kp at 2 h; subject: "O=c1ccc2ccc(O[C@@H]3C[C@H]4CC[C@@H](C3)N4)cc2o1"
12

###

Assay: Tissue distribution after single dose, mouse
Type: in vivo
Conditions: po; Brain, female NMRI mouse 10 mg/kg p.o.; read-out: T½ (converted)
property-measured: half-life
Don't forget the unit after the number, please.

Query: half-life; subject: "O=c1ccc2ccc(O[C@@H]3C[C@H]4CC[C@@H](C3)N4)cc2o1"
3 h

###

Test: Bioavailability study in dog
Format: in vivo
Conditions: plasma, po; Female beagle dog, 2.5 mg/kg p.o.
property-measured: Cmax (ng/mL)
# unit: ng/mL | format: bare number

Query: Cmax; subject: "O=c1ccc2ccc(O[C@@H]3C[C@H]4CC[C@@H](C3)N4)cc2o1"
339

###

Assay: Exposure and tissue distribution after 14 days repeat dosing, rat
Assay type: in vivo
Conditions: Wistar, rat, brain, sc; Male rats, 15 mg/kg s.c. 14 days, 2 h post last dose; read-out: Brain concentration
property-measured: concentration at 2 h

Query: concentration at 2 h; subject: "O=c1ccc2ccc(O[C@@H]3C[C@H]4CC[C@@H](C3)N4)cc2o1"
1950 ng/g

###

Experiment: Linearity after single s.c. dose in rat
Type: in vivo
Conditions: Wistar, plasma, sc; rat, 5 mg/kg s.c.
property-measured: Cmax
Don't forget the unit after the number, please.

Query: Cmax; subject: O=c1ccc2ccc(O[C@@H]3C[C@H]4CC[C@@H](C3)N4)cc2o1 [Compound (I)]
0.32 µg/mL

###

Test: Tissue distribution after single dose, mouse
Type: in vivo
Details: female, NMRI, po; Brain, mouse 10 mg/kg p.o.; read-out: AUC(0-24 h)
property-measured: AUC(0-t) (ng·h/mL)
# unit: ng·h/mL | format: bare number

Query: AUC(0-t); subject: O=c1ccc2ccc(O[C@@H]3C[C@H]4CC[C@@H](C3)N4)cc2o1 [Compound (I)]
9350

###

Assay: Exposure and tissue distribution after 14 days repeat dosing, mouse
Assay type: in vivo
Settings: NMRI, mouse, plasma, po; Male mice, 30 mg/kg p.o. 14 days, 2 h post last dose; read-out: Plasma concentration
Experimental: Single time point data is available from two 14 days repeat dose studies in mice and rats dosed to both sexes. The three low doses were performed together as one study and the top dose was performed at another occasion as a satellite study. Samples were taken 2 h post last dose. Plasma, brain and liver were taken 2 h post last dose.
property-measured: concentration at 2 h (ng/mL)
# unit: ng/mL | format: bare number

Query: concentration at 2 h; subject: O=c1ccc2ccc(O[C@@H]3C[C@H]4CC[C@@H](C3)N4)cc2o1 [Compound (I)]
762

Cited source for all entries: patent US20220288052A1
